- method: Half life of the compound in DMSO at 200 uM measured after irradiation of 1130 W/m2 UV-light for 15 mins by HPLC analysis
- Format: physicochemical
- reported conditions: DMSO solution under UV irradiation
metric name: half-life at 200 µM (s)
Report as a plain number; the unit s is understood.

IN: Which half-life at 200 µM value is on record for CC(C)(C)c1nc(-c2cccc(NS(=O)(=O)c3c(F)cccc3F)c2F)c(-c2ccnc(N)n2)s1 [DABRAFENIB] ?
OUT: 19.5

* * *

- method: Half life of the compound in DPBS at 200 uM measured after irradiation of 1130 W/m2 UV-light for 15 mins by HPLC analysis
- Format: physicochemical
- reported conditions: DPBS solution under UV irradiation
metric name: half-life at 200 µM (min)
Report as a plain number; the unit min is understood.

IN: Which half-life at 200 µM value is on record for CC(C)(C)c1nc(-c2cccc(NS(=O)(=O)c3c(F)cccc3F)c2F)c(-c2ccnc(N)n2)s1 [DABRAFENIB] ?
OUT: 2.42

* * *

- method: Half life of the compound in DMSO at 200 uM measured after irradiation of 226 W/m2 UV-light for 5 mins by HPLC analysis
- Type: physicochemical
- reported conditions: DMSO solution under UV irradiation
metric name: half-life at 200 µM (min)
Report as a plain number; the unit min is understood.

IN: Which half-life at 200 µM value is on record for `CC(C)(C)c1nc(-c2cccc(NS(=O)(=O)c3c(F)cccc3F)c2F)c(-c2ccnc(N)n2)s1` ?
OUT: 1.08
